- SYSTEM: PARP16 (Homo sapiens, UniProt Q8N5Y8)
- Construct: dockerin domain of Hungateiclostridium thermocellum Cel48s (C); made in house; host or cells: Escherichia coli
- Sequence (Q8N5Y8 1-322): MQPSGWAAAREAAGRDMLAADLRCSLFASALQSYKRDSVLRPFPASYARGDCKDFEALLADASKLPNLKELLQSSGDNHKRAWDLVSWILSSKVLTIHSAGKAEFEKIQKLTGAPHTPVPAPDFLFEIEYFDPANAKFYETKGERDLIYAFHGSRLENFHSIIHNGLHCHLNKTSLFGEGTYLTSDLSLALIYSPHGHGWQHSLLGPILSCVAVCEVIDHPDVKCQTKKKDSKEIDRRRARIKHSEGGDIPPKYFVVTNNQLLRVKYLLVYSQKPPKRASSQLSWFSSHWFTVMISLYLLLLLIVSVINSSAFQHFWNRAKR
- EXPERIMENT_SUMMARY: Proximity-enhanced mono-ART activity assay, PARP16
- Assay type: biochemical
- SETUP_CONDITIONS: > less than 50% inhibition
Known pIC50 of a selection of compounds
Quick note: pIC50 means taking -log10 of the concentration in moles per liter.

>>> assay_value("COc1ccc(OC)c2c1sc1nnc(N)n12 [Compound 27]")
5.47

In: May I ask what pIC50 has been recorded for Cc1ccc2c(c1)sc1nnc(N)n12 [Compound 21] ?
Out: 5.28

====

- SYSTEM: UniProtKB Q9H2K2
- Sequence (Q9H2K2 whole entry): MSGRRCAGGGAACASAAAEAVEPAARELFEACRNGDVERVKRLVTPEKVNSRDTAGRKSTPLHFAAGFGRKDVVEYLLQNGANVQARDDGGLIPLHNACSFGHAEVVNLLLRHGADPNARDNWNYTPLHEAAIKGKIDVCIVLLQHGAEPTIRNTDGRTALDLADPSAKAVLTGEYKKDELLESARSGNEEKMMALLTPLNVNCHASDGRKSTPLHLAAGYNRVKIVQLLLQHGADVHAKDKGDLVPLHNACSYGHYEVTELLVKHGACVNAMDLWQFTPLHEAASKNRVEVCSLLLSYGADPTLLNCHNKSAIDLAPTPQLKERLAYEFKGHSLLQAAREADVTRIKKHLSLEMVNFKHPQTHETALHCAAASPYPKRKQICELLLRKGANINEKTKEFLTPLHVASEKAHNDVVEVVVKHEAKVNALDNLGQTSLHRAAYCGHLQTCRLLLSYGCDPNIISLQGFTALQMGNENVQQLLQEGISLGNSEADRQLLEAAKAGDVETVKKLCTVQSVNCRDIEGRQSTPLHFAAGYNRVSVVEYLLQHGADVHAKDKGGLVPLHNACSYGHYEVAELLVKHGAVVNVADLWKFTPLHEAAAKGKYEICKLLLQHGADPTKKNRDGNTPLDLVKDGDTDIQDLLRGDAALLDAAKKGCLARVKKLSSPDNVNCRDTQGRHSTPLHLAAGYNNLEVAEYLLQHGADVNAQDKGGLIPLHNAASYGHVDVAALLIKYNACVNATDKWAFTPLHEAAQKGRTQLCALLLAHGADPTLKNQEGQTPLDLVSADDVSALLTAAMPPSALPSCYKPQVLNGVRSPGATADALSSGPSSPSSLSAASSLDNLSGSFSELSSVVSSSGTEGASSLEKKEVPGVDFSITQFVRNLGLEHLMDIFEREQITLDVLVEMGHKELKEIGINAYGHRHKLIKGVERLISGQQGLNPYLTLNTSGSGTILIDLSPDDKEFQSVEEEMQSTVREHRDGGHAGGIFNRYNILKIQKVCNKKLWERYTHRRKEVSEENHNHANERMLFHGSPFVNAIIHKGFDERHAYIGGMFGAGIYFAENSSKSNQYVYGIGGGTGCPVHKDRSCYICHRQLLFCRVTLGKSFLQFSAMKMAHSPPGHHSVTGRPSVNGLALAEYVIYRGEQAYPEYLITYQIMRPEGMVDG
- EXPERIMENT_SUMMARY: biochemical
TEST_READOUT: IC50

In: Please report the recorded IC50 for Cc1ccc2c(c1)sc1nnc(/N=C\c3ccc(Cl)cc3)n12 [Compound 24] .
Out: > 100 µM

====

Below, each entry is listed alongside its reported solubility at 24 h.
- EXPERIMENT_SUMMARY: Thermodynamic water solubility
- Type: physicochemical
- SETUP_CONDITIONS: distilled water, r.t., read-out: water solubility (log s) (converted)
- Procedure: Each solid compound (1 mg) was added to 1 mL of distilled water. Each sample was mixed at r.t. in a shaker water bath 24 h. The resulting suspension was filtered through a 0.45 μm nylon filter (Acrodisc), and the solubilized compound was quantified in triplicate using UV/LC–MS method reported above by comparison with the appropriate calibration curve that was obtained from samples of the compound dissolved in methanol at different concentrations.[94]
State just the number; it will be interpreted in µM.

>>> assay_value("Cc1ccc2c(c1)sc1nnc(N)n12 [Compound 21]")
184

Now look at this one.
In: Item under review: COc1ccc(OC)c2c1sc1nnc(N)n12 [Compound 27] . Reported solubility at 24 h?
Out: 50.4

====

solubility at 24 h values by entry
- EXPERIMENT_SUMMARY: Thermodynamic water solubility
- Assay type: physicochemical
- SETUP_CONDITIONS: distilled water, r.t., read-out: water solubility
Field format: number, assumed µg/mL, no unit text.

>>> assay_value("Cc1ccc2c(c1)sc1nnc(N)n12 [Compound 21]")
37.6

In: # get_value(readout='solubility at 24 h', item= COc1ccc(OC)c2c1sc1nnc(N)n12 [Compound 27] )
Out: 12.6

====

- SYSTEM: TNKS1 (Homo sapiens)
- Sequence (O95271 whole entry): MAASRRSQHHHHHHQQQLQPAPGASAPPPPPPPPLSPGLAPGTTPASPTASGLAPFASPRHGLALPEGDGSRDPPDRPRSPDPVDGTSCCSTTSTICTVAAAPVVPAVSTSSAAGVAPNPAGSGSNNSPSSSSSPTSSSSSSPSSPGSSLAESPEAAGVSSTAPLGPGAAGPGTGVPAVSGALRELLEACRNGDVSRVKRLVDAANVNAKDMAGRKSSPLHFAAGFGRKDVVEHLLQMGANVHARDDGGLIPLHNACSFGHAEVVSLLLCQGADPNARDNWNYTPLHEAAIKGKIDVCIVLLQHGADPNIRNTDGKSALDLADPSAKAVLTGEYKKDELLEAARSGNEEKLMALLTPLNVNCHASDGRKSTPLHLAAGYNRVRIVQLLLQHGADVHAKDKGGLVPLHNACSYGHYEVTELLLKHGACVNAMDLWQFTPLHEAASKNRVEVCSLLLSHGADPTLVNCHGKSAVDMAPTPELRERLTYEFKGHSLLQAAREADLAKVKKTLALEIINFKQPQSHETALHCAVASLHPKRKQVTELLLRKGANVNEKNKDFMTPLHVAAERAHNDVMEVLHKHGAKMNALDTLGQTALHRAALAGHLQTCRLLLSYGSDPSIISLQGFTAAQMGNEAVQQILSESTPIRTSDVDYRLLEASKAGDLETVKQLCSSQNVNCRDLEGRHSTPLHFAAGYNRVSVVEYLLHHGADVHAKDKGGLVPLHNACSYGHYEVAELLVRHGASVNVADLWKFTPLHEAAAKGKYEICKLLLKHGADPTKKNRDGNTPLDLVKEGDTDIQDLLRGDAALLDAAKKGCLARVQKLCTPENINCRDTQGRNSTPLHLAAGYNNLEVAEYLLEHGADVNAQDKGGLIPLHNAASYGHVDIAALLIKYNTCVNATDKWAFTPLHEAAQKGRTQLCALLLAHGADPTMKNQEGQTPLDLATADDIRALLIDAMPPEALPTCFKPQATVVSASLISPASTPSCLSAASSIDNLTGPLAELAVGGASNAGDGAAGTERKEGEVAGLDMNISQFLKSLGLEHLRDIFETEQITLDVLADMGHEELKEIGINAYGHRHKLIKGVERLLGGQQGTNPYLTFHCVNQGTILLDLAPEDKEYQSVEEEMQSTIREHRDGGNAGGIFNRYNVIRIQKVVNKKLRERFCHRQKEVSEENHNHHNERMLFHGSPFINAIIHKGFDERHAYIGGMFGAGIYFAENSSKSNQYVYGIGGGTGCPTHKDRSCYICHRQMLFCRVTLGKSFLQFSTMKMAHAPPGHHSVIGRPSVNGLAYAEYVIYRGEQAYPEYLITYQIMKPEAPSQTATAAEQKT
TEST_READOUT: IC50 (µM)
State the answer as a number, implicitly in µM.

>>> assay_value("Cc1ccc2c(c1)sc1nnc(N)n12")
2.1

In: For the compound COc1ccc(OC)c2c1sc1nnc(N)n12 , what IC50 is on record?
Out: 5.4

====

Each entry below carries its recorded Papp at 5 h, 500 μM.
- EXPERIMENT_SUMMARY: PAMPA, blood brain barrier (BBB) permeability
- Format: in vitro ADME
- SETUP_CONDITIONS: brain polar lipid, pH 7.4, 5 h
- Method: Each “donor solution” was prepared from a solution of the appropriate compound (DMSO, 1 mM) diluted with phosphate buffer (pH 7.4, 0.025 M) up to a final concentration of 500 μM. […] After the incubation time, the plates were separated, and the samples were taken from both the donor and acceptor wells, and the amount of compound was measured by UV/LC–MS. […]

Worked examples follow.
>>> assay_value("COc1ccc(OC)c2c1sc1nnc(N)n12")
"0.143 ×10⁻⁶ cm/s"
>>> assay_value("O=C(c1cc(Cc2n[nH]c(=O)c3ccccc23)ccc1F)N1CCN(C(=O)C2CC2)CC1 [olaparib, reference compound]")
"0.016 ×10⁻⁶ cm/s"

In the following, a different compound is considered.
In: Name the recorded Papp at 5 h, 500 μM for Cc1ccc2c(c1)sc1nnc(N)n12 .
Out: 0.475 ×10⁻⁶ cm/s

====

- SYSTEM: PARP15 (Homo sapiens, UniProt Q460N3)
- Construct: made in house
- Sequence (Q460N3 1-678): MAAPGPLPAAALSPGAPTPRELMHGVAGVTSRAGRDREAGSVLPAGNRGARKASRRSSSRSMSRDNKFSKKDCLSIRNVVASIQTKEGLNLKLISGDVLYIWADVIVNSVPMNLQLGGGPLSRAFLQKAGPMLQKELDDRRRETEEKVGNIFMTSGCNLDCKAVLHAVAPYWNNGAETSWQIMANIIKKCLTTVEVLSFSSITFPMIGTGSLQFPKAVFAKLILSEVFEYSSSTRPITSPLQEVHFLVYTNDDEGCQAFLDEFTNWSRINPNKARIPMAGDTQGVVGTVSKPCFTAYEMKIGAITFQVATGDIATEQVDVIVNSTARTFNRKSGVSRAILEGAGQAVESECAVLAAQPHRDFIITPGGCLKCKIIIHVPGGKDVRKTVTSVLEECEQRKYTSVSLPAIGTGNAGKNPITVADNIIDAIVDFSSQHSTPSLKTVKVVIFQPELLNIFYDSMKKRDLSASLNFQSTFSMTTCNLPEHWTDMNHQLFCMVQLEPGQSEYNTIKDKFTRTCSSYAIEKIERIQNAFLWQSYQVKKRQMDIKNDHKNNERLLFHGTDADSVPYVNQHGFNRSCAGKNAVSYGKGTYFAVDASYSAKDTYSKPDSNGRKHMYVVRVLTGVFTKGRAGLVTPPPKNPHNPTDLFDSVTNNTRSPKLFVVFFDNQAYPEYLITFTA
- EXPERIMENT_SUMMARY: biochemical
- Format: biochemical
pIC50: −log10 of the molar value.
TEST_READOUT: pIC50

In: # returns recorded pIC50 (system: PARP15 (Homo sapiens, UniProt Q460N3)) for COc1ccc(OC)c2c1sc1nnc(SC)n12 [Compound 28]
Out: < 5.00

====

- SYSTEM: PARP2 (Homo sapiens)
- Construct: made in house
- Sequence (Q9UGN5 whole entry): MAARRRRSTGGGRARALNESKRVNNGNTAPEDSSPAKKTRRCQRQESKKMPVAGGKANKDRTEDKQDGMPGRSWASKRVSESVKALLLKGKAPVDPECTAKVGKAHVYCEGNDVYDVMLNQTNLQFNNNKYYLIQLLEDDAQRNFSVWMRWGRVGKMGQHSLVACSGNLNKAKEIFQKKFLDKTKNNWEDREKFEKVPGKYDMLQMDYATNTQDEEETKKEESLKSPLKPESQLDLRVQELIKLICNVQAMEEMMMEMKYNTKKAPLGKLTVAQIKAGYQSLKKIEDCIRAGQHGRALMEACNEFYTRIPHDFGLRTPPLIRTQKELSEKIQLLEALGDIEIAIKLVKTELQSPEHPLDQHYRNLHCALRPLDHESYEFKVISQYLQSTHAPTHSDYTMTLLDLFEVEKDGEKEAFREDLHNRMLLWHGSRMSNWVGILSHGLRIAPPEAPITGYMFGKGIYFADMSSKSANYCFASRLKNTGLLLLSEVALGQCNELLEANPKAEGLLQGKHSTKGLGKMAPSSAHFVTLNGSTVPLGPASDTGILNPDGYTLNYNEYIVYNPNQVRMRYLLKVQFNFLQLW
- EXPERIMENT_SUMMARY: biochemical
- Format: biochemical
- SETUP_CONDITIONS: > = less than 50% inhibition at highest concentration; ≫ = no inhibition; read-out: PARP2 IC50
Assign labels as follows, please: fulfilled for IC50 below 9 µM; not fulfilled for IC50 equal to or exceeding 9 µM.

>>> class("Cc1cccc2c1sc1nncn12")
"fulfilled"

In: IC50 under 9 µM? Item: CSc1nnc2sc3cc(C)ccc3n12
Out: not fulfilled

In: Can you check COc1ccc(OC)c2c1sc1nnc(N)n12 next?
Out: not fulfilled

Where do the numbers come from? From paper PMC9884089.
